Measurement name: logP

These solved cases illustrate the format of a correct answer.
# Structure smiles string, logP
data = [
    ("CNS(=O)(=O)c1cccc2cccnc12", 1.13),
    ("NS(=O)(=O)c1ccc2cccnc2c1", 0.61),
    ("CN(C)S(=O)(=O)c1ccc2ncccc2c1", 1.53),
    ("NS(=O)(=O)c1cccc2cccnc12", 0.51),
]

[I] CNS(=O)(=O)c1ccnc2ccccc12
[II] NS(=O)(=O)c1cnc2ccccc2c1
Looking at I and II , which one comes out lower in logP terms? // respond with label for picked entry II
(II: 0.91, I: 1.32)

###

Measurement name: logP

# Structure smiles string, logP
records = [
    ("CNS(=O)(=O)c1cnc2ccccc2c1", 1.4),
    ("CN(C)S(=O)(=O)c1cnc2ccccc2c1", 1.86),
    ("NS(=O)(=O)c1ccnc2ccccc12", 0.93),
]

[a] CNS(=O)(=O)c1cccc2ncccc12
[b] CN(C)S(=O)(=O)c1cccc2cccnc12
Among a and b , which shows a numerically higher logP result? // respond with label for picked entry b
(b: 1.69, a: 1.06)
